- Test system: goosegrass (Eleusine indica)
- ASSAY INFO: Test C postemergence
- Type: in vivo
- CONDITION DESCRIPTION: Rate 62 g/ha, scale 0 to 100
MEASUREMENT TYPE: Plant response rating, Goosegrass
Respond numerically, and do not add a unit to the figure.

Some compounds with known Plant response rating, Goosegrass results, for comparison:
- COMPOUND: "Cc1ccc(N2CCC(n3ccc(C(C)(C)C)n3)C2=O)cc1I (centres unmarked)"
  Plant response rating, Goosegrass: 0
- COMPOUND: "COc1cc(N2CCC(n3ccc(C(C)(C)C)n3)C2=O)ccc1Br (centres unmarked)"
  Plant response rating, Goosegrass: 20

Query: Suppose we examine the compound CCC(CC)c1ccn(C2OCN(c3cccc(OC(F)F)c3)C2=O)n1 (centres unmarked) ; what Plant response rating, Goosegrass value has been reported?
Reply: 40

Query: Suppose we examine the compound Cc1ccc(N2CCC(n3ccc(C(C)(C)C)n3)C2=O)cc1OCCCl (centres unmarked) ; what Plant response rating, Goosegrass value has been reported?
Reply: 0

Query: Suppose we examine the compound O=C1C(n2ccc(C3CCC3)n2)SCN1c1cccc(OC(F)(F)F)c1 (centres unmarked) ; what Plant response rating, Goosegrass value has been reported?
Reply: 0
